System: zidovudine-resistant primary clinical HIV-1 isolates
testSummary: p24 drug susceptibility assay, NRTI-/zidovudine-resistant primary clinical HIV-1 isolates in PBMC
Assay type: cell-based
runParameters: Human immunodeficiency virus 1, PBMC, primary isolate Y270-7 (Y188L); Table 14
measuredProperty: pIC50
pIC50 here is simply -log10 of the concentration when that concentration is written in mol/L.

Q: Retrieve pIC50 measured for COC(=O)C(C)NP(=O)(OC[C@@H]1C=C[C@H](n2cc(C)c(=O)[nH]c2=O)O1)Oc1ccc(Br)cc1 (stereo partly shown) [Compound 1c] and print it.
Ans: 8.05

====

Reported values of IC50 for individual entries
System: Zidovudine-Sensitive Primary Clinical HIV-1 Isolates
testSummary: p24 drug susceptibility assay, zidovudine-sensitive primary clinical HIV-1 isolates in PBMC
Assay type: cell-based
runParameters: Human immunodeficiency virus 1, PBMC, read-out: IC50, μM (p24), isolate 92BR025 (C/C, Brazil); PBMC
Experimental: Antiviral susceptibility assays. […] Percent inhibition of viral replication was calculated by comparing the p24 values from the test substance-treated infected cells with p24 values from untreated infected cells (i.e., virus controls). The IC50 values were determined using the Statview statistics program (SAS Institute, Inc.). […] A microculture tetrazolium assay (MTA) was performed to quantitate cellular proliferation (Uckun, 1998, Antimicrobial Agents and Chemotherapy, 42:383-388). […]
Field format: number, assumed µM, no unit text.

Worked cases, answers included:
Cc1cn([C@H]2C=C[C@@H](CO)O2)c(=O)[nH]c1=O [d4T, 2′,3′-didehydro-2′,3′-dideoxythymidine]
0.4
Cc1cn([C@H]2C[C@H](N=[N+]=[N-])[C@@H](CO)O2)c(=O)[nH]c1=O
0.004

Turning now to a further record.
Q: // fetch IC50 given entry COC(=O)C(C)NP(=O)(OC[C@@H]1C=C[C@H](n2cc(C)c(=O)[nH]c2=O)O1)Oc1ccc(Br)cc1 (stereo partly drawn)
Ans: 0.001
